ASSAY: self-splicing fitness, log relative to wild type (ln ratio); higher = more splicing; Tetrahymena group I intron in knt gene, E. coli kanamycin selection, DiMSum; sequences stand for … in CUCUCU…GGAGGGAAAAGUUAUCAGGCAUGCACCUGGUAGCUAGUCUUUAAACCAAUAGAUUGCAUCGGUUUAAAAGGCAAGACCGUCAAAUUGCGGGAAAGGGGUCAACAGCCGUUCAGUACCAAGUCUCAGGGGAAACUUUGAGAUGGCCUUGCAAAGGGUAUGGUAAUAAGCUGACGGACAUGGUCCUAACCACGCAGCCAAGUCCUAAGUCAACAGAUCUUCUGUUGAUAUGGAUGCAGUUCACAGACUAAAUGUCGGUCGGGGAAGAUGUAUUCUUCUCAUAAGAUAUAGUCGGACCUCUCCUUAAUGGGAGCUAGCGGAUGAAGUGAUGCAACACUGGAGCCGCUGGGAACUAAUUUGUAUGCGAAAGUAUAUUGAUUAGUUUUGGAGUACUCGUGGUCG;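 also: selection with 25 µg/mL kanamycin versus none on LB agar overnight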
CONDITION DESCRIPTION: 30 °C
READOUT NAME: self-splicing fitness (ln)

1. AUCAAGCAAUAUUACGGUUC ... -3.53
2. GUCCAGCAAUAUUACGAGGG ... -2.29
3. GCGGAGCAAUAUUACGGCUC ... -2.05

* * *

ASSAY: self-splicing fitness, log relative to wild type (ln ratio); higher = more splicing; Tetrahymena group I intron in knt gene, E. coli kanamycin selection, DiMSum; sequences stand for … in CUCUCU…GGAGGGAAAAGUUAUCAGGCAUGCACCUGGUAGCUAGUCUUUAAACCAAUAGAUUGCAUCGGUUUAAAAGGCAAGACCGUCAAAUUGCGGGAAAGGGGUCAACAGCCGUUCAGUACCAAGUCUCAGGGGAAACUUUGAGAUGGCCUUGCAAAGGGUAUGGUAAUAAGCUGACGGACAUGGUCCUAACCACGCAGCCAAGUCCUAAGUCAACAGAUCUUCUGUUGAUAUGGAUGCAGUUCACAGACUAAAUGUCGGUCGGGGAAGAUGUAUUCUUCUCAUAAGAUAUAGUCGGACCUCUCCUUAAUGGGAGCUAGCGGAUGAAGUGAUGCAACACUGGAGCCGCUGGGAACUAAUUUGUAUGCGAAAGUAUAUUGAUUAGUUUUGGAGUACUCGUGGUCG
CONDITION DESCRIPTION: 37 °C
Label True when self-splicing fitness (ln) is at or above -1; otherwise label False.

1) UCCCAGCAAUAUUACGUUUC ... False
2) UAUAAGCAAUAUUACGAUCC ... False
3) CAAGAGCAAUAUUACGAGUA ... False
4) GGUAAGCAAUAUUACGAAAU ... True
5) AUGGAGCAAUAUUACGAGGG ... False
6) CUUGAGCAAUAUUACGAUUA ... False
7) GACGAGCAAUAUUACGUACC ... False
8) ACUUAGCAAUAUUACGCGCU ... True
9) AGAAAGCAAUAUUACGUGAG ... True
10) ACAGAGCAAUAUUACGUGCU ... False
11) GAGCAGCAAUAUUACGAAUC ... False
12) CACAAGCAAUAUUACGAAGU ... False
13) AAGAAGCAAUAUUACGUGUC ... False
14) ACCAAGCAAUAUUACGUGAC ... False
15) AAACAGCAAUAUUACGAGAA ... False
16) CGCAAGCAAUAUUACGUUUG ... False
17) UAGGAGCAAUAUUACGCCAA ... False
18) UGCAAGCAAUAUUACGGGCU ... False
19) AUCAAGCAAUAUUACGUCUG ... True
20) AUAAAGCAAUAUUACGGGCU ... True
21) AGUAAGCAAUAUUACGUUGG ... False
22) UCUUAGCAAUAUUACGUACG ... True
23) ACAAAGCAAUAUUACGUGUU ... False
24) CUUGAGCAAUAUUACGCCUG ... False
25) AAGGAGCAAUAUUACGAUUU ... True
26) AAGAAGCAAUAUUACGGGAG ... False
27) UCCAAGCAAUAUUACGGAGA ... True
28) GUACAGCAAUAUUACGAGCA ... False
29) UUACAGCAAUAUUACGGUCA ... True
30) UGGAAGCAAUAUUACGGUUG ... True
31) GACGAGCAAUAUUACGUAGC ... False
32) GAUCAGCAAUAUUACGUAAU ... True
